study-system: human RXFP1 (Homo sapiens)
Construct: expressed in transfected cells
Sequence (Q9HBX9 1-757): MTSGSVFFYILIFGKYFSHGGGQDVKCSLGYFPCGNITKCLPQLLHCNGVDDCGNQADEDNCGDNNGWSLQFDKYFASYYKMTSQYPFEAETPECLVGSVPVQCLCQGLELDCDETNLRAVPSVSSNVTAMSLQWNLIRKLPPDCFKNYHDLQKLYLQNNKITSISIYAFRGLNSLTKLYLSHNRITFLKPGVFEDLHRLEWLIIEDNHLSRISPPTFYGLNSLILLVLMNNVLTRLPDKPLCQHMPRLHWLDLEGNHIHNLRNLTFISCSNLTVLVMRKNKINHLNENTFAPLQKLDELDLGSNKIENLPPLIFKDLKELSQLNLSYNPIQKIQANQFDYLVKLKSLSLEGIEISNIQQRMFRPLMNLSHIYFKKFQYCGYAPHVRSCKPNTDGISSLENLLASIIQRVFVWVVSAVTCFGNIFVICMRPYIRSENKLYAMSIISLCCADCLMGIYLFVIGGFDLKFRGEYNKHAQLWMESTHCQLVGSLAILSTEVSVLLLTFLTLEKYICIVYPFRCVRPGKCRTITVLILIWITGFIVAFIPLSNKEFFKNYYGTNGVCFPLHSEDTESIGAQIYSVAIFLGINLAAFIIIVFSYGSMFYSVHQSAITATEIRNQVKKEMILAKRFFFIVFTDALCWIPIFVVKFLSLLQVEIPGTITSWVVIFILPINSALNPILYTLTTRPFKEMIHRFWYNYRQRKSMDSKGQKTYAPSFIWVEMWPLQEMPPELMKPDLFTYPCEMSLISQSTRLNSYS
assay-overview: RXFP1 cAMP assay (hRXFP1 HEK293 cAMP assay, HTRF)
Format: cell-based
assay-context: HEK293 cells stably expressing human RXFP1, 30 min at room temperature, read-out: cAMP hRXFP1 HEK293 Assay EC50
property: pEC50
Please express pEC50 as -log10 of the molar concentration.

Prompt line: Output pEC50 of COc1ccc(-c2cc(C(NC(=O)C3CCOCC3)C(=O)O)ccc2F)cc1C(=O)N[C@H]1[C@@H](C(=O)Nc2ccc(F)c(C(F)(F)F)c2)[C@H]2CC[C@@H]1/C2=C\C1CC1 (some centres unmarked) [Example 238]
Response line: 9.00

Prompt line: Consider the compound COc1ccc(-c2cccc3c2CN(C(=O)N(C)c2ccccc2)C3)cc1C(=O)N[C@H]1[C@@H](C(=O)Nc2ccc(F)c(C(F)(F)F)c2)[C@H]2CC[C@@H]1/C2=C\C1CC1 [compound 886] . State its measured pEC50.
Response line: 8.57

Prompt line: Entry CNC(=O)/C=C1\C2CCC1[C@H](C(=O)Nc1ccc(F)c(C(F)(F)F)c1)[C@@H]2NC(=O)c1cc(F)c(F)cc1OC (some centres unmarked) [compound 73] needs its pEC50 filled in; supply it.
Response line: 5.62

Prompt line: Return value of pEC50 for input COc1cc(F)c(F)cc1C(=O)N[C@@H]1C2CCC(/C2=C\Br)[C@@H]1C(=O)Nc1ccc(F)c(C(F)(F)F)c1 (some centres unmarked) [compound 10] , no commentary.
Response line: 5.96

Prompt line: Determine from records and report pEC50 for CCC(NC(=O)[C@@H]1[C@H](NC(=O)c2cc(C3=NOC4COCC34)ccc2OC)[C@@H]2CC[C@H]1/C2=C/C1CC1)c1ccccc1C (single isomer, unassigned) [compound 656]
Response line: 6.51
